assay: amyloid nucleation score (Sup35N fusion, yeast selection) (log enrichment); library NNK1; higher = more nucleation; inactive = no reads after selection;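 note: zero at mode of non-aggregating sequences after 7 days selection at 30°C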
# binning rule on amyloid nucleation score: band 1 (below 0.01), band 2 (0.01 to below 0.5), band 3 (0.5 or more)

For orientation, consider the following solved cases.
**Q:** Class for `GLVVIGRSCDDYESIMTRSM` ?
**A:** band 2

**Q:** Let us now turn to `GLLIGDT`
**A:** band 2

**Q:** Let us now turn to `VISINSVLACVYTIVMR`
**A:** band 1

**Q:** Let us now turn to `GYWGPVFSGRCIPVNNK`
**A:** band 1

**Q:** Let us now turn to `IFVVGKGDLGCCQI`
**A:** band 3

---
**Q:** Class for `SQLNCIDRTMGYDDRMEIRS` ?
**A:** band 2

**Q:** Let us now turn to `HHSYKYCKLAFWTRSSKWNR`
**A:** band 3

**Q:** Let us now turn to `RIRVDVEWSARRPG`
**A:** band 3

**Q:** Let us now turn to `TFGSVGYI`
**A:** band 2

**Q:** Let us now turn to `FTSRRATCDIGNSMNACFER`
**A:** band 3

**Q:** Let us now turn to `FRLGPLEQ`
**A:** band 1

**Q:** Let us now turn to `ELNPMFKTQHWLNSWNIWLL`
**A:** band 3

**Q:** Let us now turn to `EIRKNTASMIMKLCIYIVGA`
**A:** band 1

**Q:** Let us now turn to `PLNKSEAESLFKLLTLLDRN`
**A:** band 1

**Q:** Let us now turn to `NFSHHSIYGHVPRPEEQNPM`
**A:** band 2

----------
experiment: amyloid nucleation score (Sup35N fusion, yeast selection) (log enrichment); library NNK1; higher = more nucleation; inactive = no reads after selection
measured_property: amyloid nucleation score
Returns: the value as a bare number; no unit string appended.

**Q:** Which amyloid nucleation score is listed for `EYIYNIAEWVD` ?
**A:** -1.05

**Q:** Let us now turn to `VYSYYLLLGLW`
**A:** 3.66

**Q:** Let us now turn to `SRPHTVWDMC`
**A:** 0.245

**Q:** Let us now turn to `LSCLYDDCC`
**A:** 1.05

**Q:** Let us now turn to `RMMFCVVAESGFQVWEVRSG`
**A:** -0.502

Next, consider the following substance.
**Q:** Which amyloid nucleation score is listed for `ISICTMLLFSPVS` ?
**A:** -0.894

----------
assay: amyloid nucleation score (Sup35N fusion, yeast selection) (log enrichment); library NNK3; higher = more nucleation; inactive = no reads after selection
measured_property: amyloid nucleation score

**Q:** Which amyloid nucleation score is listed for `DFYGCGFTFTRSFFRQWFIG` ?
**A:** 1.09

**Q:** Let us now turn to `IHTQAFMGMFSLHWNHVFDL`
**A:** inactive

**Q:** Let us now turn to `VRVLDWNLMHFFFSYKRFLQ`
**A:** -0.094

**Q:** Let us now turn to `RTIQFPS`
**A:** inactive

**Q:** Let us now turn to `VIVTVVSPTSMRNGDTRMQI`
**A:** inactive

---
**Q:** Which amyloid nucleation score is listed for `KIYWGATLNQTSYRVAVCLT` ?
**A:** inactive

**Q:** Let us now turn to `YWLMKALQIWHSENRFRYIE`
**A:** inactive

**Q:** Let us now turn to `NFWVIPQ`
**A:** inactive

**Q:** Let us now turn to `FNILSLSRTSNYPRHCLFRL`
**A:** inactive

**Q:** Let us now turn to `NSVVSGFLGHVLVGRRCGHR`
**A:** inactive

**Q:** Let us now turn to `NYSAFRGSMIV`
**A:** inactive

**Q:** Let us now turn to `RWSNYMFDRQLY`
**A:** -1.2

**Q:** Let us now turn to `NLQLESFYWFGPRGVRKHLE`
**A:** inactive

**Q:** Let us now turn to `LVTFCYLDGSILNGEALRG`
**A:** inactive

**Q:** Let us now turn to `RVERICDNVSSC`
**A:** -0.577

**Q:** Let us now turn to `WLKWFLRTCNMVKIFASPFF`
**A:** inactive

**Q:** Let us now turn to `NGSSFCAKCVNVW`
**A:** -0.418

----------
experiment: amyloid nucleation score (Sup35N fusion, yeast selection) (log enrichment); library NNK3; higher = more nucleation; inactive = no reads after selection
measured_property: amyloid nucleation score

Reference set (10 entries):
**Q:** Which amyloid nucleation score is listed for `PVLSYSVLRYL` ?
**A:** inactive

**Q:** Let us now turn to `ETLYSCQKGGQRQRKAG`
**A:** inactive

**Q:** Let us now turn to `RSRVSQFICRPGEVVNIAKC`
**A:** inactive

**Q:** Let us now turn to `SFITIVIVSVGMRSLVLHRL`
**A:** inactive

**Q:** Let us now turn to `TFFFTVLG`
**A:** 1.55

**Q:** Let us now turn to `NMYGYADYYRAFRDSN`
**A:** inactive

**Q:** Let us now turn to `TVHSHKWCSLVGGPIRISWT`
**A:** inactive

**Q:** Let us now turn to `LYSLVFWNDSSCRSRLVTWF`
**A:** inactive

**Q:** Let us now turn to `SGDPSSLEDIGFVIYWRIYI`
**A:** inactive

**Q:** Let us now turn to `NLRSLFKPWPVVPAYMRFME`
**A:** inactive

Next, consider the following substance.
**Q:** Which amyloid nucleation score is listed for `GIYGRTGHSYVF` ?
**A:** inactive

----------
assay: amyloid nucleation score (Sup35N fusion, yeast selection) (log enrichment); library NNK2; higher = more nucleation; inactive = no reads after selection
amyloid nucleation score values, listed per item
Returns: the value as a bare number; no unit string appended.

**Q:** Which amyloid nucleation score is listed for `GHIMKCGATRQYHCEDP` ?
**A:** -0.614

**Q:** Let us now turn to `YCMCIFATLG`
**A:** -0.398

---
**Q:** Which amyloid nucleation score is listed for `SLYFLTGWSFMMDQGVSTPC` ?
**A:** 6.93

**Q:** Let us now turn to `FENDFMRVSCDGSRGILCVL`
**A:** 2.48

**Q:** Let us now turn to `FISSSYSKEFSIYEFIDIFR`
**A:** -0.539

**Q:** Let us now turn to `PVNPQEFLSALSSRYEVKSW`
**A:** -0.095

**Q:** Let us now turn to `GYSSGFQVAVNLRSTLRQSY`
**A:** 3.03

**Q:** Let us now turn to `SLQGVM`
**A:** -1.04

**Q:** Let us now turn to `PTRLTVKVMCLKPEPLVWKL`
**A:** 6.48

**Q:** Let us now turn to `VYTRKCGLAFRVSSGT`
**A:** 0.574

**Q:** Let us now turn to `WGWEIFIVWTWLRGVILYVL`
**A:** -0.602

----------
assay: amyloid nucleation score (Sup35N fusion, yeast selection) (log enrichment); library NNK2; higher = more nucleation; inactive = no reads after selection
measured_property: amyloid nucleation score

**Q:** Which amyloid nucleation score is listed for `TVRRTRFLNNISFNGFNVFV` ?
**A:** 7.38

**Q:** Let us now turn to `RLFCSAVAH`
**A:** 0.308

**Q:** Let us now turn to `QCLYWV`
**A:** inactive

**Q:** Let us now turn to `KDPLNYNSYSVLLDIWWNLS`
**A:** 1.57

**Q:** Let us now turn to `NTHFFVMRVEFGPWYTSSCS`
**A:** 2.42

**Q:** Let us now turn to `GFLNLCRSTSRELMCEMYSA`
**A:** -0.651

---
**Q:** Which amyloid nucleation score is listed for `ASVENGSALIIRESDMSGGN` ?
**A:** 0.556

**Q:** Let us now turn to `ILGVLGFGGSRDRLSTRWGS`
**A:** 1.66

**Q:** Let us now turn to `CLGTWPNLLGSISTMYAD`
**A:** 0.854

**Q:** Let us now turn to `ISFMQGDCRWHQVNSLQRIM`
**A:** -0.94

**Q:** Let us now turn to `HRYSRLRRVHYSYRSKGLNH`
**A:** inactive

**Q:** Let us now turn to `WEITLVNGSWVLESRTQRHF`
**A:** 4.06

**Q:** Let us now turn to `GMDSFPFCMCRDCPYWGYDM`
**A:** -0.745

Entry source: the supplement of paper PMC12042874
